src = patent US7094752B2

Target: UniProt Q03405
Sequence (Q03405 23-305 limits assumed): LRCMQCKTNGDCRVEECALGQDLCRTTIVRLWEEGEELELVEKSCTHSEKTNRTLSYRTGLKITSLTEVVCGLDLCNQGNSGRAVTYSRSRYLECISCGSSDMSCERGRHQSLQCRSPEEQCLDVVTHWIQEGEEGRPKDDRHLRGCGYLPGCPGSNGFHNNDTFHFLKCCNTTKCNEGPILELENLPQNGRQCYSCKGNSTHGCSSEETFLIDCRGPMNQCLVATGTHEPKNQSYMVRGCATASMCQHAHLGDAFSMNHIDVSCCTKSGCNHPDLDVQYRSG
Assay type: binding
Set-up: sUPAR, soluble truncated form of the urokinase receptor; made in house; host or cells: baculovirus-infected Sf9 insect cells
Conditions: 2500.0
Square brackets hold non-standard residues; d marks the D form. Peptide text beside a SMILES is read from it. Abu = CC[C@H](N)C(=O)O
OBSERVABLE: % Inhibition 2.5 uM (%)
Express it in %; write the number only.

Input line: Provide measured % Inhibition 2.5 uM value, entry: CC[C@H](NC(=O)[C@H](Cc1ccc(O)cc1)NC(=O)CNC(=O)[C@H](CC(C)C)NC(=O)[C@H](CO)NC(=O)[C@H](CC(C)C)NC(=O)[C@H](Cc1c[nH]cn1)NC(=O)[C@H](Cc1c[nH]cn1)NC(=O)[C@H](Cc1ccc(O)cc1)NC(=O)[C@@H](NC(=O)[C@H](CO)NC(=O)[C@H](CCC(=O)O)NC(=O)[C@H](C)N)[C@@H](C)O)C(=O)N[C@@H](Cc1ccc(O)cc1)C(=O)N[C@H](C(=O)N[C@@H](CC(C)C)C(=O)N[C@@H](CC(N)=O)C(N)=O)[C@@H](C)O [Analog 45] (H-AESTYHHLSLGY[Abu]YTLN-NH2)
Output line: 31
